# System: NCI-H2228
# assay-procedure: relative viability (nuclei count vs DMSO), 5 days (fraction); higher = more cells survive
# assay-conditions: first compound 0.01 µM
measured-parameter: relative viability
// no unit string in output, number only

Can you look up the measured relative viability of Cc1cn(-c2cc(NC(=O)c3ccc(C)c(Nc4nccc(-c5cccnc5)n4)c3)cc(C(F)(F)F)c2)cn1 [Nilotinib] + Nc1nc2[nH]cc(CCc3ccc(C(=O)N[C@@H](CCC(=O)O)C(=O)O)cc3)c2c(=O)[nH]1 [Pemetrexed] (partner 0.2 µM) for me? 0.282

Same again, this time with Cc1cn(-c2cc(NC(=O)c3ccc(C)c(Nc4nccc(-c5cccnc5)n4)c3)cc(C(F)(F)F)c2)cn1 [Nilotinib] + CC(=O)c1c(C)c2cnc(Nc3ccc(N4CCNCC4)cn3)nc2n(C2CCCC2)c1=O [Palbociclib] (partner 0.5 µM) 0.935

Then this compound: Cc1cn(-c2cc(NC(=O)c3ccc(C)c(Nc4nccc(-c5cccnc5)n4)c3)cc(C(F)(F)F)c2)cn1 [Nilotinib] + O=C(CCCCCCC(=O)Nc1ccccc1)NO [Vorinostat] (partner 1 µM) 0.594

Param item: Cc1cn(-c2cc(NC(=O)c3ccc(C)c(Nc4nccc(-c5cccnc5)n4)c3)cc(C(F)(F)F)c2)cn1 [Nilotinib] + CC(=O)Nc1cccc(-n2c(=O)n(C3CC3)c(=O)c3c(Nc4ccc(I)cc4F)n(C)c(=O)c(C)c32)c1 [Trametinib] (partner 0.02 µM) 0.576

Entry to check: Cc1cn(-c2cc(NC(=O)c3ccc(C)c(Nc4nccc(-c5cccnc5)n4)c3)cc(C(F)(F)F)c2)cn1 [Nilotinib] + N=C(N)NC(=N)NCCc1ccccc1 [Phenformin] (partner 250 µM) 0.383

Also Cc1cn(-c2cc(NC(=O)c3ccc(C)c(Nc4nccc(-c5cccnc5)n4)c3)cc(C(F)(F)F)c2)cn1 [Nilotinib] + CCNC(=O)c1noc(-c2cc(C(C)C)c(O)cc2O)c1-c1ccc(CN2CCOCC2)cc1 [Luminespib] (partner 0.01 µM) , if possible. 0.183

Also Cc1cn(-c2cc(NC(=O)c3ccc(C)c(Nc4nccc(-c5cccnc5)n4)c3)cc(C(F)(F)F)c2)cn1 [Nilotinib] + O=C(c1cc(Cc2n[nH]c(=O)c3ccccc23)ccc1F)N1CCN(C(=O)C2CC2)CC1 [Olaparib] (partner 8 µM) ? 0.76

// same read-out, input: Cc1cn(-c2cc(NC(=O)c3ccc(C)c(Nc4nccc(-c5cccnc5)n4)c3)cc(C(F)(F)F)c2)cn1 [Nilotinib] + CC1(C)CCC(c2ccc(Cl)cc2)=C(CN2CCN(c3ccc(C(=O)NS(=O)(=O)c4ccc(N[C@H](CCN5CCOCC5)CSc5ccccc5)c(S(=O)(=O)C(F)(F)F)c4)cc3)CC2)C1 [Navitoclax] (partner 0.5 µM) 0.927
